# ASSAY METHOD TEXT: in vitro
# ASSAY CONTEXT: mouse
EXPERIMENTAL ENDPOINT: IC50 at 48 h

Take a look at these entries with their results.
CCC(C)SSc1nccs1 (stereo not shown)
34 µM
CC(O)C(C)SSc1ccccc1 (stereo not shown)
46 µM
c1ccc(CSSc2ncc[nH]2)cc1 [DLK-36, benzyl 2-imidazolyl disulfide]
22 µM
CCCSSC1CCCC1
51 µM
CCC(C)SSc1ncc[nH]1 (stereo not shown) [IV-2, 1-methylpropyl 2-imidazolyl disulfide]
19 µM
CC(C)SSCc1ccccc1
42 µM
CC(SSc1nccs1)c1ccccc1 (stereo not shown)
28 µM
CCSSc1ncc[nH]1 [VI-2, ethyl 2-imidazolyl disulfide]
8 µM

Go through the items and report each one's IC50 at 48 h.
1. CCC(C)SSc1ncnc2[nH]cnc12 (stereo not shown)
2. CCC(C)SSc1nnc(C)s1 (stereo not shown)
3. CC(O)C(C)SSc1nc2ccccc2o1 (stereo not shown)
4. CCC(C)SSc1nnc(S)s1 (stereo not shown)
5. CCCCSSc1ncc[nH]1 [III-2, n-butyl 2-imidazolyl disulfide]

## Result
1: > 180 µM; 2: 7 µM; 3: 29 µM; 4: 36 µM; 5: 12 µM

All figures here come from patent US6552060B1.
